molecular target: D(2) dopamine receptor (Homo sapiens); test: Negative allosteric modulation of human D2LR expressed in Flp-In-CHO cells assessed as inhibition of dopamine-indued ERK1/2 phosphorylation preincubated for 30 mins followed by dopamine addition and measured after 5 mins by AlphaScreen assay; type: cell-based
experimental readout: Kb (nM)

I: COc1cccc2cc(C(=O)N[C@H]3CC[C@H](CCN4CCc5ccc(C#N)cc5C4)CC3)[nH]c12
II: N#Cc1ccc2c(c1)CN(CC[C@H]1CC[C@H](NC(=O)c3cnc4ccccn34)CC1)CC2
III: N#Cc1ccc2c(c1)CN(CC[C@H]1CC[C@H](NC(=O)c3cc4cc(F)ccc4[nH]3)CC1)CC2
IV: N#Cc1ccc2c(c1)CN(CC[C@H]1CC[C@H](NC(=O)c3cc4ccccn4n3)CC1)CC2
## Task Output the entries ranked by Kb from maximum down to minimum. Your task in answering is to list the labels in the requested order.
## Result IV, I, II, III
